assay: Hygroscopicity (weight gain in 90% humidity)
Assay type: physicochemical
measurement_parameters: 140 hr
observed_property: Hygroscopicity (% weight gain)

molecule="O.O.O.O.O.O=S(=O)([O-])[O-].[Cu+2] [copper sulfate pentahydrate]" meas_value=14.4
molecule="[Cl-].[Cl-].[Zn+2] [reagent grade zinc chloride, zinc chloride]" meas_value=126.5
molecule="O.O.O.O.O.O.O.O=S(=O)([O-])[O-].[Zn+2] [reagent grade zinc sulfate, zinc sulfate heptahydrate, reference compound]" meas_value=36.1
